System: Escherichia coli TOP10
Experiment: shrunken log2 fold change of peptide-encoding DNA abundance (4.5 h post-induction vs induction); higher = less antimicrobial activity (less host growth inhibition)
Conditions: time post-induction: 4.5 h; library: site-saturation at positions 5, 18, 19, 20
We use -0.04 as the dividing line for shrunken log2 fold change: on or above the line is Met, below is Not met.

- CHAIN: "RRIRGRPPRLPRPRPRPHFIPRP"
  ASSIGNED_LABEL: "Not met"
- CHAIN: "RRIRWRPPRLPRPRPRPDASPRP"
  ASSIGNED_LABEL: "Met"
- CHAIN: "RRIRGRPPRLPRPRPRPLNKPRP"
  ASSIGNED_LABEL: "Met"
- CHAIN: "RRIRHRPPRLPRPRPRPWYEPRP"
  ASSIGNED_LABEL: "Not met"
- CHAIN: "RRIRNRPPRLPRPRPRPMCKPRP"
  ASSIGNED_LABEL: "Not met"
- CHAIN: "RRIRGRPPRLPRPRPRPEWHPRP"
  ASSIGNED_LABEL: "Met"
- CHAIN: "RRIRKRPPRLPRPRPRPTQHPRP"
  ASSIGNED_LABEL: "Met"
- CHAIN: "RRIRRRPPRLPRPRPRPNIEPRP"
  ASSIGNED_LABEL: "Met"
- CHAIN: "RRIRHRPPRLPRPRPRPDHEPRP"
  ASSIGNED_LABEL: "Met"
- CHAIN: "RRIRPRPPRLPRPRPRPCFAPRP"
  ASSIGNED_LABEL: "Met"
- CHAIN: "RRIRIRPPRLPRPRPRPEFPPRP"
  ASSIGNED_LABEL: "Met"
- CHAIN: "RRIRYRPPRLPRPRPRPYWKPRP"
  ASSIGNED_LABEL: "Met"
- CHAIN: "RRIRQRPPRLPRPRPRPAHSPRP"
  ASSIGNED_LABEL: "Met"
- CHAIN: "RRIRGRPPRLPRPRPRPSFEPRP"
  ASSIGNED_LABEL: "Met"
- CHAIN: "RRIRTRPPRLPRPRPRPGLRPRP"
  ASSIGNED_LABEL: "Met"
- CHAIN: "RRIRRRPPRLPRPRPRPEHNPRP"
  ASSIGNED_LABEL: "Met"
- CHAIN: "RRIRERPPRLPRPRPRPQGIPRP"
  ASSIGNED_LABEL: "Not met"
- CHAIN: "RRIRSRPPRLPRPRPRPMPLPRP"
  ASSIGNED_LABEL: "Not met"
- CHAIN: "RRIRNRPPRLPRPRPRPIYGPRP"
  ASSIGNED_LABEL: "Not met"
- CHAIN: "RRIRARPPRLPRPRPRPGATPRP"
  ASSIGNED_LABEL: "Met"
- CHAIN: "RRIRDRPPRLPRPRPRPHYIPRP"
  ASSIGNED_LABEL: "Not met"
- CHAIN: "RRIRIRPPRLPRPRPRPVIVPRP"
  ASSIGNED_LABEL: "Not met"
- CHAIN: "RRIRMRPPRLPRPRPRPVVHPRP"
  ASSIGNED_LABEL: "Met"
- CHAIN: "RRIRFRPPRLPRPRPRPDYSPRP"
  ASSIGNED_LABEL: "Not met"
- CHAIN: "RRIRFRPPRLPRPRPRPPKAPRP"
  ASSIGNED_LABEL: "Met"
- CHAIN: "RRIRCRPPRLPRPRPRPKPIPRP"
  ASSIGNED_LABEL: "Met"
- CHAIN: "RRIRSRPPRLPRPRPRPKPQPRP"
  ASSIGNED_LABEL: "Met"

---

Tested on: Escherichia coli TOP10
Assay: shrunken log2 fold change of peptide-encoding DNA abundance (4.5 h post-induction vs induction); higher = less antimicrobial activity (less host growth inhibition)
Conditions: time post-induction: 4.5 h; library: site-saturation at positions 5, 18, 19, 20
PROPERTY_LABEL: shrunken log2 fold change

- CHAIN: "RRIRSRPPRLPRPRPRPCNGPRP"
  ASSAY_VALUE: -0.0821
- CHAIN: "RRIRTRPPRLPRPRPRPKHEPRP"
  ASSAY_VALUE: -0.3
- CHAIN: "RRIRKRPPRLPRPRPRPYLHPRP"
  ASSAY_VALUE: -0.31
- CHAIN: "RRIRHRPPRLPRPRPRPYYLPRP"
  ASSAY_VALUE: -0.72
- CHAIN: "RRIRHRPPRLPRPRPRPTPEPRP"
  ASSAY_VALUE: -0.0453
- CHAIN: "RRIRHRPPRLPRPRPRPYHDPRP"
  ASSAY_VALUE: -0.135
- CHAIN: "RRIRIRPPRLPRPRPRPTNFPRP"
  ASSAY_VALUE: -0.535
- CHAIN: "RRIRPRPPRLPRPRPRPSDKPRP"
  ASSAY_VALUE: -0.264
- CHAIN: "RRIRYRPPRLPRPRPRPSTFPRP"
  ASSAY_VALUE: -0.282
- CHAIN: "RRIRNRPPRLPRPRPRPTYHPRP"
  ASSAY_VALUE: -0.526
- CHAIN: "RRIRGRPPRLPRPRPRPYFLPRP"
  ASSAY_VALUE: -0.345
- CHAIN: "RRIRWRPPRLPRPRPRPWPPPRP"
  ASSAY_VALUE: 0.546
- CHAIN: "RRIRHRPPRLPRPRPRPTVHPRP"
  ASSAY_VALUE: -0.755
- CHAIN: "RRIRDRPPRLPRPRPRPYVTPRP"
  ASSAY_VALUE: -0.131
- CHAIN: "RRIRLRPPRLPRPRPRPGQTPRP"
  ASSAY_VALUE: 0.277
- CHAIN: "RRIRFRPPRLPRPRPRPRDAPRP"
  ASSAY_VALUE: 0.541

---

Test system: Escherichia coli TOP10;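 further: peptides expressed intracellularly from a pBAD plasmid library in pooled LB shake-flask culture, induced with 0.3% L-arabinose, DNA abundance read by NGS, three biological replicates, DESeq2 with apeglm shrinkage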
Experiment: shrunken log2 fold change of peptide-encoding DNA abundance (4.5 h post-induction vs induction); higher = less antimicrobial activity (less host growth inhibition)
Conditions: time post-induction: 4.5 h; library: site-saturation at positions 5, 18, 19, 20
PROPERTY_LABEL: shrunken log2 fold change

- CHAIN: "RRIRLRPPRLPRPRPRPVFPPRP"
  PROPERTY_LABEL: "shrunken log2 fold change"
  ASSAY_VALUE: 0.263
- CHAIN: "RRIRCRPPRLPRPRPRPHITPRP"
  PROPERTY_LABEL: "shrunken log2 fold change"
  ASSAY_VALUE: -0.704
- CHAIN: "RRIRIRPPRLPRPRPRPDLDPRP"
  PROPERTY_LABEL: "shrunken log2 fold change"
  ASSAY_VALUE: "-3.99e-05"
- CHAIN: "RRIRRRPPRLPRPRPRPPHSPRP"
  PROPERTY_LABEL: "shrunken log2 fold change"
  ASSAY_VALUE: 0.916
- CHAIN: "RRIRWRPPRLPRPRPRPPYIPRP"
  PROPERTY_LABEL: "shrunken log2 fold change"
  ASSAY_VALUE: -0.3
- CHAIN: "RRIRMRPPRLPRPRPRPHTPPRP"
  PROPERTY_LABEL: "shrunken log2 fold change"
  ASSAY_VALUE: 0.137
- CHAIN: "RRIRVRPPRLPRPRPRPSAWPRP"
  PROPERTY_LABEL: "shrunken log2 fold change"
  ASSAY_VALUE: 0.804
- CHAIN: "RRIRDRPPRLPRPRPRPSIWPRP"
  PROPERTY_LABEL: "shrunken log2 fold change"
  ASSAY_VALUE: 0.262
- CHAIN: "RRIRNRPPRLPRPRPRPMEGPRP"
  PROPERTY_LABEL: "shrunken log2 fold change"
  ASSAY_VALUE: -0.00992
- CHAIN: "RRIRTRPPRLPRPRPRPYFSPRP"
  PROPERTY_LABEL: "shrunken log2 fold change"
  ASSAY_VALUE: -0.156
- CHAIN: "RRIRIRPPRLPRPRPRPMMTPRP"
  PROPERTY_LABEL: "shrunken log2 fold change"
  ASSAY_VALUE: -0.115
- CHAIN: "RRIRMRPPRLPRPRPRPLHHPRP"
  PROPERTY_LABEL: "shrunken log2 fold change"
  ASSAY_VALUE: -0.0632
- CHAIN: "RRIRCRPPRLPRPRPRPDIEPRP"
  PROPERTY_LABEL: "shrunken log2 fold change"
  ASSAY_VALUE: -0.0833
- CHAIN: "RRIRHRPPRLPRPRPRPHDIPRP"
  PROPERTY_LABEL: "shrunken log2 fold change"
  ASSAY_VALUE: 0.0564
- CHAIN: "RRIRVRPPRLPRPRPRPGNYPRP"
  PROPERTY_LABEL: "shrunken log2 fold change"
  ASSAY_VALUE: -0.162
